Consider the following compounds; for each one, report its viability, T/C.
- Tested on: 186277-243-T-J2-PDC complex spheroid viability;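 further: 7 day exposure to compounds; 100% = DMSO vehicle control viability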
- Assay text: Anticancer human tumor 186277-243-T-J2-PDC patient-derived colon adenocarcinoma cell line growth inhibition
- Condition parameters: second compound 3.16 µM; first compound 0.03 µM; hits give low values
- Description: Multicellular complex tumor spheroid response to LSD1 Inhibitor Iadademstat in combination with a variety of drugs and investigational agents in selected tumor cell lines The current study was undertaken to assess response to LSD1 inhibitors in combination with standard-of-care drugs and investigational agents in solid tumor complex spheroid models as well as in the K-562 leukemia. […] Compounds. […] If the clinical Cmax for an agent had not been determined, the highest concentration tested was 10 microM. […]
Numbers only, in %.

- Compound: "Nc1ccccc1NC(=O)c1ccc(CNC(=O)OCc2cccnc2)cc1 + NC1CC1c1ccc(-c2cccc(O)c2)cc1"
  Endpoint name: "viability, T/C"
  Measure unit: "%"
  Obs value: 110

Provide each entry's viability, T/C from the list below.
1. Nc1ccn(C2OC(CO)C(O)C2(F)F)c(=O)n1 (centres undefined) + NC1CCC(NC2CC2c2ccccc2)CC1
2. CCN(c1cc(-c2ccc(CN3CCOCC3)cc2)cc(C(=O)NCc2c(C)cc(C)[nH]c2=O)c1C)C1CCOCC1 + NC1CCC(NC2CC2c2ccccc2)CC1

Completion:
1. 19.6
2. 115

Provide each entry's viability, T/C from the list below.
1. NS(=O)(=O)OCC1CC(n2ccc3c(NC4CCc5ccccc54)ncnc32)CC1O (centres undefined) + NC1CCC(NC2CC2c2ccccc2)CC1
2. O=C(C=Cc1cccc(S(=O)(=O)Nc2ccccc2)c1)NO + NC1CCC(NC2CC2c2ccccc2)CC1
3. Nc1ncn(C2CC(O)C(CO)S2)c(=O)n1 (centres undefined) + NC1CCC(NC2CC2c2ccccc2)CC1
4. Nc1ccn(C2OC(CO)C(O)C2(F)F)c(=O)n1 (centres undefined) + NC1CC1c1ccc(-c2cccc(O)c2)cc1
5. CCc1c2c(nc3ccc(O)cc13)-c1cc3c(c(=O)n1C2)COC(=O)[C@]3(O)CC + NC1CCC(NC2CC2c2ccccc2)CC1
6. NS(=O)(=O)OCC1CC(n2ccc3c(NC4CCc5ccccc54)ncnc32)CC1O (centres undefined) + NC1CC1c1ccc(-c2cccc(O)c2)cc1

Completion:
113
92
109
11.7
20.8
98.2
